Listed below: EC50 values for each entry.
# Target: T1, his-tagged cynomolgus monkey PVRIG (cyno-PVRIG-his) recombinant protein (cynomolgus monkey)
# T1 construct: expressed in HEK293, purified by Ni-NTA; also called Monkey PVRIG-his; cynomolgus monkey PVRIG recombinant protein
# T1 chain: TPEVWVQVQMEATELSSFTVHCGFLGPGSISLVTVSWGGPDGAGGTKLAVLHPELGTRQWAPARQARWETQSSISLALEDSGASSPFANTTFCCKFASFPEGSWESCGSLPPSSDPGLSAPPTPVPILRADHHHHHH
# Test Name: ELISA, coated antigen
Please give a number only; it is taken to be in nM.

| Binder | EC50 / nM |
| --- | --- |
| anti-PVRIG antibody 39 (antibody, human IgG4 S228P, F234A L235A, V domains shown, no light chain) VH: QVQLVESGGGSVQAGGSLRLSCAASRYTSRTDCMGWFRQAPGKEREGVAHIDSDGIPRYVESVKGRFTISQDHAKNTLYLQMNSLKPEDSATYYCVVGFKFGDYCAPNDWGQGTQVTVSS | 0.16 |

The value of EC50 measured for the binder anti-PVRIG antibody 151 (antibody, human IgG4 S228P, F234A L235A, V domains shown, no light chain) VH: HVQLVESGGGSVQAGGSLRLSCVASASGFTYRPYCMAWFRQAPGKEREAVAGIDIFGGTTYADSVKGRFTASRDNAGFSLFLQMNDLKPEDTAMYYCAAGDSPDGRCPPLGQGLNYWGQGTQVTVSS turned out to be 2.43

For reference, reported EC50 for anti-PVRIG antibody 38 (antibody, human IgG4 S228P, F234A L235A, V domains shown, no light chain) VH: QVQLVESGGGSVQAGGSLRLSCAASPSTYGPSDMAWFRQAPGKQREGVATISAAGRLTYYTDSVRGRFTISRDNAKNTMYLQMNSLKPEDTAMYYCAADFAGGSSLFADYKYWGQGTQVTVSS stands at 0.4

Kindly note the recorded EC50 for anti-PVRIG antibody 20 (antibody, human IgG4 S228P, F234A L235A, V domains shown, no light chain) VH: DVQLVESGGGSVQAGGSLRLSCVASRYTSRTDCMGWFRQAPGKEHEGVAHIDSDGIPRYVDSVKGRFTISQDHAKNTLYLQMNSLKPEDSATYYCVVGFKFDDDYCAPNDWGQGTQVTVSS , which is 0.14

Entry under test: anti-PVRIG antibody 30 (antibody, human IgG4 S228P, F234A L235A, V domains shown, no light chain) VH: HVQLVESGGGSVQAGGSLRLSCEASGYSYSGDCMGWFRRAPGKERDEGVATIDNAGRIKYADSVKGRFTISHGNGKYILYLQMNSLKPEDTDMYYCAAGWTFGGNCSPADWGQGTQVTVSS . Its EC50 was 0.16
